- Test system: T47D
- experimentNotes: NCI tumour cell line growth inhibition, 48 h
Calls of active or inactive are those of the source. No stated cut-off is given here; in the data, active = GI50 up to about 1.1 µM and inactive = higher.
Property: GI50; scope: individual compounds

compound | GI50
CC1(C)OCC2OC3(c4nc(C#N)c(N)o4)OC(C)(C)OC3C2O1 (stereo unspecified) | > 100 µM (inactive)
O=C1/C(=C/c2ccccc2S)N=C(c2ccccc2)N1c1nc2ccc(Sc3ccccc3)cc2[nH]1 | 28.8 µM (inactive)
COc1cccc(C2c3cc4c(cc3OC(N3CCOCC3)C2C)OCO4)c1OC (stereo unspecified) | 3.2 µM (inactive)
OCN(CO)c1ccc2c(c1)Cc1cc(F)ccc1-2 | 17.8 µM (inactive)
COC1OC(=O)C(OC)C(OC)C1OC (stereo unspecified) | > 100 µM (inactive)
COc1cc(Br)cc2c1O[C@H]1C(=O)CC3CC21CCN3C (stereo partly specified) | 23.2 µM (inactive)
CC(=O)c1cc(C)n2c1CS[C@@H]2c1ccccc1 | 35.6 µM (inactive)
CSc1ccc(C2C(Cl)C(=O)N2NC(=O)c2c(Cl)c(Cl)c(Cl)c(Cl)c2-c2nc3ccccc3[nH]2)cc1 (stereo unspecified) | 4.28 µM (inactive)
CC(C)(C)c1cc(C2=NN(c3ccccc3)C(c3ccccc3)C2)cc(C(C)(C)C)c1O (stereo unspecified) | 31.5 µM (inactive)
O=C1CC(c2ccc(Cl)cc2)C2(C(=O)NC(=S)NC2=O)C(c2ccc(Cl)cc2)C1 (stereo unspecified) | 23.7 µM (inactive)
CCc1n[nH]c(=O)n1NC(=O)CCCC(=O)O | > 100 µM (inactive)

The origin of these recorded values is ChEMBL document CHEMBL1201862.
